Molecular target: T1, human PD-1 (human, UniProt Q15116 25-167)
T1 construct: The immunogen was PD1/Fc (Leu25-Gln167 fused to human IgG1 Pro100-Lys330); also called huPD-1; hPD-1
T1 sequence (Q15116 25-167 limits assumed): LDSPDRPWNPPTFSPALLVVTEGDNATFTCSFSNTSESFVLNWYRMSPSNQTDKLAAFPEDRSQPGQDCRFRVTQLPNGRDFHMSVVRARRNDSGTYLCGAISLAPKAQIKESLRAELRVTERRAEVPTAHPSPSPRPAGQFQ
Experiment: SPR, multiple-cycle, crude Fab from E. coli; antigen form not stated
pKd: −log10 of the molar value.
Recorded Endpoint: pKd

Binder | Recorded Endpoint | Test Result
Fab 6 (Fab, V domains shown, Crude Fab from E. coli; also called PD1-BM VL-T13A) VH: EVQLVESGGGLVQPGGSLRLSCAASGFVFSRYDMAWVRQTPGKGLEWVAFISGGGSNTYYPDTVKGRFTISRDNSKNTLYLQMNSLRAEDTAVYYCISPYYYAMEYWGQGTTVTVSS VL: DIQMTQSPSSISASVGDRVTITCKASQDVDTAVAWYQQKPGKSPKLLIHWASTRHTGVPSRFSGSGSGTDFTLTLSSVQPEDLADYFCQQYSTFPWTFGGGTKLEIK | pKd | 9.60

Values from patent US20190330346A1
